All values here come from PubChem BioAssay (NCI).

- Tested on: UACC-62 melanoma
- method_summary: NCI-60 one-dose screen, 48 h (100 = growth as untreated, 0 = no growth, -100 = all killed)
- details: 10 µM unless noted
The panel holds about 83,000 compounds, 20% with a hit somewhere; the sample as a whole holds those more often.
Recorded growth by entry
recorded_metric: growth (%)

compound: O=C(Nc1ccccc1F)Nc1ccccc1Cl
observed_result: 73.2

compound: Clc1ccc2c(NCCNc3nc(Cl)nc4ccccc34)ccnc2c1
observed_result: -89.6

compound: CC(=O)c1ccc2c(c1)C1C=CCC1[C@H](c1cc3c(cc1Br)OCO3)N2 (some centres not stated)
observed_result: 34.6

compound: CC(=O)c1cc2c(N)c(C(=O)Nc3cccc(Cl)c3)sc2nc1C
observed_result: 56.2

compound: COc1ccc2c(c1)OC(N)=C(C#N)C2c1ccc(F)c(F)c1 (configuration not stated)
observed_result: 38.1

compound: COc1ccc(/C=C/C(=O)/C=C(/C=C/c2ccc(OC)c(OC)c2OC)OB(F)F)c(OC)c1OC
observed_result: 35.4

compound: O=C(COc1ccc(Cl)cc1)N1CCN(Cc2ccc3c(c2)OCO3)CC1
observed_result: 81.8

compound: Cc1cc(C)c(O)c(C(=O)CC(Br)C(=O)O)c1 (configuration not stated)
observed_result: 95.7

compound: S=C=NP1(N=C=S)=NP(N=C=S)(N=C=S)=NP(N=C=S)(N=C=S)=NP(N=C=S)(N=C=S)=N1 (configuration not stated)
observed_result: 97.7

compound: OCc1cnccc1NC12CC3CC(CC(C3)C1)C2
observed_result: 104

compound: O=C(Nc1ccc(-n2cc(-c3ccncc3)c(-c3ccc(O)c(Cl)c3)n2)cc1)Nc1cc(C(F)(F)F)cc(C(F)(F)F)c1
observed_result: 64.1

compound: S=c1ssnc1-c1ccccn1
observed_result: 34.5

compound: c1ccc([Se]CCCN2CCN(CCC[Se]c3ccccc3)CC2)cc1
observed_result: 92.3

compound: COc1ccc(CNc2nc3ccccc3c3c(=O)c4ccccc4sc23)cc1OC
observed_result: 68.8

compound: CCOc1cccc(Nc2nc(N)nc3[nH]c4ccc(O)cc4c23)c1
observed_result: 73.8

compound: NS(=O)(=O)c1ccc(CCN2C(=O)/C(=C\c3ccc(Cl)cc3)C=C2c2ccc(Oc3ccccc3)cc2)cc1
observed_result: 68.8

compound: C[C@]12CC[C@@H]3c4ccc(O)c(N)c4CC[C@H]3[C@@H]1CC[C@@H]2O
observed_result: 97.1

compound: CCOC(=O)n1cnc2c(Cl)ncnc21
observed_result: 104

compound: O=C(Nc1ccc(-n2ccc3c(NC(=O)c4ccccc4)ncnc32)cc1)Nc1ccc(Cl)c(Cl)c1
observed_result: 48.5

compound: CCN(CC)C(=O)C1CCN(C(=O)c2ccccc2)CC1
observed_result: 97.2

compound: Cc1cn(C2CC(F)C(CO)O2)c(=O)[nH]c1=O (configuration not stated)
observed_result: 81.1

compound: c1ccc2c(c1)Oc1cccnc1-n1nccc1-2
observed_result: 84.7
